Data credit: patent US20190071480A1

- Tested target: T1, extracellular domain of activin receptor type IIB (ActRIIBecd), biotinylated (Homo sapiens (Human), UniProt Q13705 27-117, amino-biotinylated with amine-PEG3-Biotin)
- T1 construct: immobilised on a streptavidin-coated sensor chip; also called biotinylated ActRIIBecd; extracellular domain of ActRIIB
- T1 sequence: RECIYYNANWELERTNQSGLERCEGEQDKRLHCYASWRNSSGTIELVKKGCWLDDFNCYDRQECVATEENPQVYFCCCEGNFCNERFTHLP
- Experiment: BIAcore SPR, biotinylated ActRIIBecd on chip; SD ±12.76 nM

# Binder, Kd, nM
data = [
    ("Recombinant polypeptide of clones 21 + 10 (designed binder) NSKIPKACCVPTELSAISMLYLDENEKVVLKNYQDMVVEGCGCRAQAKHKQRKRLKSSCKRHPLY", 30.2),
]
